Here the recorded Ki is given for each entry.
molecular target: UniProt:P56817; assay: Inhibition of memapsin 2 beta-secretase activity (fluorogenic substrate FS-2); assay type: biochemical; settings: memapsin 2, pH 4, 37° C., 20 minutes pre-incubation; read-out: M2Ki
Endpoint: Ki

- Molecule: "COc1cccc(CNC[C@@H](O)[C@H](Cc2ccccc2)NC(=O)c2cc(OS(C)(=O)=O)cc(C(=O)N[C@H](C)c3ccccc3)c2)c1 [Compound 70]"
  Subject of test: "UniProt:P56817"
  Measured result: "< 300 nM"
- Molecule: "Cc1csc(CN(C)C(=O)c2cccc(C(=O)N[C@@H](Cc3ccccc3)[C@H](O)CNC(C)c3cccnc3)c2)n1 (stereo partly drawn) [Compound 43]"
  Subject of test: "UniProt:P56817"
  Measured result: "> 501 nM"
- Molecule: "CNc1nc(CNC[C@@H](O)[C@H](Cc2ccccc2)NC(=O)c2cccc(C(=O)N(C)Cc3nc(C)cs3)c2)cc(C(C)C)n1 [Compound 161]"
  Subject of test: "UniProt:P56817"
  Measured result: "< 300 nM"

---

molecular target: memapsin 2 (Homo sapiens); test: Inhibition of memapsin 2 beta-secretase activity (fluorogenic substrate FS-2); type: biochemical; settings: memapsin 2, pH 4, 37° C., fluorogenic substrate FS-2; read-out: M2Ki
Sequence (P56817 46-501): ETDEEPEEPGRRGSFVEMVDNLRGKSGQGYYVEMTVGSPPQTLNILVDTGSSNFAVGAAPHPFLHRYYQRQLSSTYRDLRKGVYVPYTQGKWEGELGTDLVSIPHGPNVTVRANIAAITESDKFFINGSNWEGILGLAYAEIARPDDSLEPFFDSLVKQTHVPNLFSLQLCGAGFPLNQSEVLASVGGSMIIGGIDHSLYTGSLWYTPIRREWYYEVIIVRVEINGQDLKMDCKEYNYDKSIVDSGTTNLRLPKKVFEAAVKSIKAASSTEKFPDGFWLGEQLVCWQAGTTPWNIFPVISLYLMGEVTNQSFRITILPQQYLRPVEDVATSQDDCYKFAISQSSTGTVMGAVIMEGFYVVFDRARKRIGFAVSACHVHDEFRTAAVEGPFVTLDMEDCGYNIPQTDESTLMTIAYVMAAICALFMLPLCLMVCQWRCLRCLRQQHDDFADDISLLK
pKi: −log10 of the molar value.

- Molecule: "Cc1csc(CN(C)C(=O)c2cccc(C(=O)N[C@@H](Cc3ccccc3)[C@H](O)CN(C)Cc3cncc(C(C)C)c3)c2)n1 [Compound 312]"
  Subject of test: "memapsin 2 (Homo sapiens)"
  pKi: "< 6.30"
- Molecule: "Cc1csc(CN(C)C(=O)c2cc(C(=O)N[C@@H](Cc3ccccc3)[C@H](O)CNCc3cncc(C(C)(C)F)c3)cc(N(C)C)c2)n1 [Compound 220]"
  Subject of test: "memapsin 2 (Homo sapiens)"
  pKi: "> 6.52"
- Molecule: "C=C(C)c1cncc(C(=O)NC[C@@H](O)[C@H](Cc2ccccc2)NC(=O)c2cccc(C(=O)N(C)Cc3nc(C)cs3)c2)c1 [Compound 288]"
  Subject of test: "memapsin 2 (Homo sapiens)"
  pKi: "< 6.30"
- Molecule: "Cc1cc(C(=O)N[C@@H](Cc2ccccc2)[C@H](O)CNCc2cccc(C(F)(F)F)c2)cc(C(=O)N(C)Cc2nc(C)cs2)c1 [Compound 232]"
  Subject of test: "memapsin 2 (Homo sapiens)"
  pKi: "> 6.52"
- Molecule: "COc1cccc(CNC[C@@H](O)[C@H](Cc2ccccc2)NC(=O)c2cc(C(=O)N(C)Cc3nc(C)cs3)cc(-n3cccc3)c2)c1 [Compound 238]"
  Subject of test: "memapsin 2 (Homo sapiens)"
  pKi: "> 6.52"
- Molecule: "COc1cccc(CNC[C@@H](O)[C@H](Cc2ccccc2)NC(=O)c2cc(C(=O)N(C)Cc3nc(C)cs3)cc(-n3ccnc3)c2)c1 [Compound 262]"
  Subject of test: "memapsin 2 (Homo sapiens)"
  pKi: "> 6.52"

---

target: memapsin 2 (Homo sapiens); assay: Inhibition of memapsin 2 beta-secretase activity (fluorogenic substrate FS-2); type: biochemical; settings: memapsin 2, pH 4, 37° C., 20 minutes pre-incubation; read-out: M2Ki
Endpoint: Ki

- Compound structure: "CNC(=O)c1cc(CNC[C@@H](O)[C@H](Cc2ccccc2)NC(=O)c2cccc(C(=O)N(C)Cc3nc(C)cs3)c2)cc(OC)c1"
  Endpoint: "Ki"
  Measured result: "< 300 nM"
- Compound structure: "Cc1csc(CN(C)C(=O)c2cccc(C(=O)N[C@@H](Cc3ccccc3)[C@H](O)CNCc3cc(C(C)C)nc(C(C)C)c3)c2)n1"
  Endpoint: "Ki"
  Measured result: "< 300 nM"
- Compound structure: "COC(=O)c1cccc(CNC[C@@H](O)[C@H](Cc2ccccc2)NC(=O)c2cccc(C(=O)N(C)Cc3nc(C)cs3)c2)c1"
  Endpoint: "Ki"
  Measured result: "301 to 500 nM"

Entry source: patent US20100286145A1
